meta.source: patent US10399932B2

Please provide measured IC50 for the entries that follow.
target: human IDO1 (Homo sapiens); experiment: Assessment of human IDO-1 inhibitory activity in HEK cells (human IDO1/HEK293 cells, Ehrlich reagent, absorbance at 490 nm); assay type: cell-based; set-up: expressed in transfected cells; conditions: In Vitro Potency in the HEK Human IDO-1 Cellular Assay

Data request: IC50 lookup needed for CCC(CC(=O)O)c1ccc(N(CC(C)C)C(C)C)c(Nc2ccc(Cl)cc2)c1 (single isomer, unassigned) , thanks.
Data returned: < 5 nM

Data request: Also CCOc1ncc(Nc2cc(C(CC)CC(=O)O)ccc2N(CC(C)C)C2CCCCC2)cn1 (single isomer, unassigned) ?
Data returned: < 5 nM

Data request: Try the compound CC(C)CN(CC(C)C)c1c(F)cc(C(CC(=O)O)c2ccccc2)cc1Nc1ccc(Cl)cc1 (single isomer, unassigned)
Data returned: < 50 nM

====

biological target: human IDO1 (Homo sapiens, UniProt P14902); test: Assessment of human IDO-1 inhibitory activity in Hela cells (Interferon-gamma activated, Ehrlich reagent, absorbance at 490 nm); type: cell-based; design: endogenous in cells; host or cells: HeLa cells stimulated with interferon-gamma; conditions: 18 hours
Sequence (P14902 whole entry): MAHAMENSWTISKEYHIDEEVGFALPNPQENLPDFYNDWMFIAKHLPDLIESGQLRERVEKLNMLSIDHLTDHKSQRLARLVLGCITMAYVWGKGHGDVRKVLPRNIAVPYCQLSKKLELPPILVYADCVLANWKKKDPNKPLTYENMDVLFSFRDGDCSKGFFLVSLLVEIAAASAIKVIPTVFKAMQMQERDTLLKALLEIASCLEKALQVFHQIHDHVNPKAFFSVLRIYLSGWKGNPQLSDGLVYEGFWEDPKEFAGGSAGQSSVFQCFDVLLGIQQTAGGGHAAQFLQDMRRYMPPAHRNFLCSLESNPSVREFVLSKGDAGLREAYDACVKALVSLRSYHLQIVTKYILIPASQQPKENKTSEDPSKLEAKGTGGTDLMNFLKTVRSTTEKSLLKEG
Parameter measured: IC50

Data request: Could you share which IC50 value was measured for CCC1COCCN1c1ccc([C@@H](COC)CC(=O)O)cc1Nc1ccc(C#N)c(F)c1 (single isomer, unassigned) ?
Data returned: > 50 nM

Data request: Let us now turn to CCCOc1ncc(Nc2cc(C(C)CC(=O)O)ccc2N(CC)C2CCOCC2)cn1 (single isomer, unassigned)
Data returned: < 50 nM

Data request: One more molecule: CCOc1ncc(Nc2cc(C(CC)CC(=O)O)ccc2N(CCOC)C2CCOCC2)cn1 (single isomer, unassigned)
Data returned: < 50 nM

Data request: Same question, COCC(CC(=O)O)c1ccc(N2C[C@@H](C)O[C@@H](C)C2)c(Nc2ccc(C#N)cc2)c1 (single isomer, unassigned) [602 E2] this time
Data returned: > 50 nM

Data request: And then CCN(c1cc(F)c([C@@H](COC)CC(=O)O)cc1Nc1ccc(Cl)cc1)C1CCOCC1 (single isomer, unassigned) [Example 844] , what is it?
Data returned: < 5 nM

Data request: Now give it for CCCN(c1ccc(C(CC)CC(=O)O)cc1Nc1ccc(C#N)cc1)C1CCS(=O)(=O)CC1 (single isomer, unassigned) [Example 12 Enantiomer 2] too.
Data returned: < 5 nM

Data request: Follow-up item: CCOc1ncc(Nc2cc([C@@H](COC)CC(=O)O)ccc2N2CCOCC2CC)cn1 (single isomer, unassigned)
Data returned: > 50 nM

Data request: Then what about the molecule CCC(CC(=O)O)c1cc(F)c(N(CC)C2CCOCC2)c(Nc2ccc(C#N)cn2)c1 (single isomer, unassigned) ?
Data returned: < 5 nM

Data request: Another molecule: Cc1ccc(NC(=O)Nc2cc(C(C)CC(=O)O)ccc2N2C[C@@H](C)O[C@@H](C)C2)cc1 (single isomer, unassigned)
Data returned: > 50 nM

Data request: # repeat for CCC1COCCN1c1ccc([C@H](COC)CC(=O)O)cc1Nc1cnc(OC)nc1 (single isomer, unassigned)
Data returned: > 50 nM

Data request: Next molecule up: CCN(c1ccc([C@@H](COC)CC(=O)O)cc1Nc1ccc(C#N)c(OC)c1)C1CCOCC1
Data returned: < 50 nM

Data request: Same question for CCN(c1ccc(C(C)CC(=O)O)cc1Nc1cnc(OC(C)C)nc1)C1CCOCC1 (single isomer, unassigned) please.
Data returned: > 50 nM

Data request: Next record, please: CCOc1ncc(Nc2cc(C(CC)CC(=O)O)ccc2N(CC)C2CCCOC2)cn1 (single isomer, unassigned)
Data returned: < 5 nM

Data request: Entry COCC(CC(=O)O)c1ccc(N(C)C2CCOCC2)c(Nc2ccc(C#N)c(F)c2)c1 (single isomer, unassigned) please
Data returned: < 50 nM

Data request: Another molecule to check: CCOc1ncc(Nc2cc(C(CC)CC(=O)O)ccc2N(CC)C2CCOC2)cn1 (single isomer, unassigned) [Example 945 D2]
Data returned: < 50 nM

Data request: Moving on to the next molecule: CCCN(c1ccc(C(CC)CC(=O)O)cc1NC(=O)Nc1ccc(C)cc1)C1CCS(=O)(=O)CC1 (single isomer, unassigned) [Example 14 Enantiomer 2]
Data returned: > 50 nM

Data request: Thanks! And COCC(CC(=O)OC)c1ccc(N(CC(F)F)C2CCOCC2)c(Nc2ccc(Cl)cc2)c1 (stereo not shown) [Example 320] ?
Data returned: > 50 nM

Data request: What would you report for CCN(c1ccc(C(COC)CC(=O)O)cc1NC(=O)Nc1ccc(C#N)cc1)C1CCOCC1 (single isomer, unassigned) [Example 422 E2] ?
Data returned: > 50 nM

Data request: Same again, this time with COCCN(c1ccc(C(COC)CC(=O)O)cc1Nc1ccc(C#N)cc1)C1CCOCC1 (single isomer, unassigned)
Data returned: < 50 nM

Data request: Would you mind doing CCC(CC(=O)O)c1ccc(N(CC)C2CCCOC2)c(Nc2ccc(C#N)cc2)c1 (single isomer, unassigned) [Example 64] as well?
Data returned: < 5 nM

Data request: One more molecule: CCN(c1cc(F)c(C(COC)CC(=O)O)cc1Nc1ccc(Cl)cc1)C1CCOCC1 (stereo not shown)
Data returned: < 50 nM

Data request: What about this molecule? COCC(CC(=O)O)c1ccc(NC2CCOCC2)c(Nc2ccc(C#N)cc2)c1 (single isomer, unassigned) [Example 928 E2]
Data returned: > 50 nM

====

target: human IDO1 (Homo sapiens, UniProt P14902); test: Assessment of human IDO-1 inhibitory activity in Hela cells (Interferon-gamma activated, Ehrlich reagent, absorbance at 490 nm); format: cell-based; design: endogenous in cells; host or cells: HeLa cells stimulated with interferon-gamma; conditions: 18 hours
pIC50: −log10 of the molar value.
Parameter measured: pIC50

Data request: Param readout = pIC50; param system = human IDO1 (Homo sapiens, UniProt P14902); param query = CCC(CC(=O)O)c1ccc(N(C)C2CCOCC2)c(Nc2ccc(Cl)cc2)c1 (single isomer, unassigned) ; response: value
Data returned: > 8.30

Data request: Then CCN(c1ccc(C(COC)CC(=O)O)cc1Nc1ccc(C#N)cc1)C1CCS(=O)(=O)CC1 (single isomer, unassigned) ?
Data returned: < 7.30

Data request: Ok, now CCC(CC(=O)O)c1ccc(N(CC(F)F)C2CCOCC2)c(Nc2ccc(Cl)cc2)c1 (single isomer, unassigned) [Example 318 Enantiomer 2]
Data returned: > 8.30

Data request: Further, for CCOc1ncc(Nc2cc(C(CC)CC(=O)O)ccc2N(C)C2CCOCC2)cn1 (single isomer, unassigned) ?
Data returned: > 7.30

Data request: What about CCC(CC(=O)O)c1ccc(N(CCOC)C2CCOCC2)c(NC(=O)Nc2ccc(Cl)cc2F)c1 (single isomer, unassigned) ?
Data returned: > 7.30

Data request: Queued: CCC(CC(=O)O)c1ccc(N(CC)C2CCS(=O)(=O)CC2)c(Nc2ccc(Cl)cc2)c1 (single isomer, unassigned) [Example 334 Enantiomer 2]
Data returned: > 8.30

Data request: Param item: CCCN(c1ccc(C(CC)CC(=O)O)cc1Nc1cnc(OCC)nc1)C1CCS(=O)(=O)CC1 (single isomer, unassigned) [Example 13 Enantiomer 2]
Data returned: > 7.30

Data request: // next record CCC(CC(=O)O)c1cc(Nc2cnc(OC)nc2)c(N(CC)C2CCOCC2)cc1F (single isomer, unassigned)
Data returned: > 8.30

Data request: Next entry: CCN(c1ccc(C(CC(=O)O)C2CC2)cc1Nc1ccc(F)cc1)C1CCS(=O)(=O)CC1 (single isomer, unassigned)
Data returned: > 8.30

Data request: And for COCC(CC(=O)O)c1ccc(N(C)C2CCOCC2)c(Nc2ccc(C#N)cc2)c1 (single isomer, unassigned) ?
Data returned: > 7.30

Data request: And CCOc1ncc(Nc2cc(C(CC)CC(=O)O)ccc2N2CCOCC2)cn1 (single isomer, unassigned) [Example 7 Enantiomer 1] ?
Data returned: < 7.30

Data request: Record: COCCN(c1ccc(C(COC)CC(=O)O)cc1NC(=O)Nc1ccc(C)cc1)C1CCOCC1 (single isomer, unassigned) [Example 261 Enantiomer 2]
Data returned: < 7.30

====

molecular target: human IDO1 (Homo sapiens); assay: Assessment of human IDO-1 inhibitory activity in HEK cells (human IDO1/HEK293 cells, Ehrlich reagent, absorbance at 490 nm); format: cell-based; design: expressed in transfected cells; details: In Vitro Potency in the HEK Human IDO-1 Cellular Assay
pIC50: −log10 of the molar value.
Parameter measured: pIC50

Data request: Any idea what pIC50 came out for CCOc1ccc(CC(=O)Nc2cc(C(COC)CC(=O)O)ccc2N(CC(C)C)C2CCCCC2)cc1 (single isomer, unassigned) [Example 1242] on human IDO1 (Homo sapiens)?
Data returned: > 7.30

Data request: Lookup COCC(CC(=O)O)c1cc(F)c(N(CC(C)C)CC(C)C)c(NC(=O)Nc2ccc(OC)cc2F)c1 (single isomer, unassigned) [Example 1189]
Data returned: > 8.30

Data request: Moving on to the next compound: CC(CC(=O)O)c1ccc(N2C[C@@H](C)O[C@@H](C)C2)c(Nc2ccc(C#N)cc2)c1 (single isomer, unassigned) [Example 743]
Data returned: < 7.30

Data request: Next up: COCC(CC(=O)O)c1ccc(N(CC(C)C)C2CCOCC2)c(NC(=O)Nc2ccc(OC(F)(F)F)cc2)c1 (single isomer, unassigned) [Example 1218]
Data returned: < 7.30

Data request: Same question, CCC(CC(=O)O)c1ccc(N(CC(C)C)C2CCCCC2)c(Nc2ccc3c(c2)OCCO3)c1 (single isomer, unassigned) [Example 317] this time
Data returned: > 7.30

Data request: Queued: CCC(CC(=O)O)c1cc(F)c(N(CC(C)C)CC(C)C)c(Nc2ccc(Cl)cc2)c1 (single isomer, unassigned) [Example 115]
Data returned: > 8.30

Data request: What about this compound? Cc1cc(NC(=O)Nc2cc(C(CC(=O)O)C3CC3)ccc2N(CC(C)C)C2CCOCC2)no1 (single isomer, unassigned) [Example 1201 Enantiomer 2]
Data returned: > 7.30

Data request: CCOc1ccc(NC(=O)Nc2cc(C(COC)CC(=O)O)ccc2N(CC(C)C)C2CCOCC2)cc1 (single isomer, unassigned) [Example 1219] ?
Data returned: < 7.30

Data request: Same lookup for COCC(CC(=O)O)c1ccc(N(CC(C)C)C2CCCCC2)c(NC(=O)Cc2ccc(C)cc2)c1 (single isomer, unassigned) [Example 1240] , please.
Data returned: > 7.30

Data request: Ok, now CC[C@@H](CC(=O)O)c1ccc(N(CC(C)C)C2CCS(=O)(=O)CC2)c(NC(=O)Nc2cc(C)on2)c1 (single isomer, unassigned) [Example 218]
Data returned: < 7.30

Data request: Another compound: CCC(CC(=O)O)c1ccc(N2CCC[C@H]2C(C)(C)O)c(NC(=O)Nc2ccc(OC)cc2)c1 (single isomer, unassigned) [Example 827]
Data returned: < 7.30

Data request: Next compound: CCc1ccc(Nc2cc([C@@H](CC)CC(=O)O)ccc2N(CC(C)(C)O)C2CCCCC2)cc1 (single isomer, unassigned) [Example 228]
Data returned: > 8.30

Data request: Check COCC(CC(=O)O)c1cc(F)c(N(CC(C)C)CC(C)C)c(NC(=O)Nc2cc(C)on2)c1 (single isomer, unassigned) [Example 1188] too.
Data returned: > 7.30

Data request: How about CC(CC(=O)O)c1ccc(N(CC(C)(C)O)C2CCOCC2)c(Nc2ccc(Cl)cc2)c1 (single isomer, unassigned) [Example 193] ?
Data returned: > 8.30

Data request: Check Cc1ccc(NC(=O)Nc2cc(C(CC(=O)O)C3CC3)ccc2N(CC(C)C)C2CCOCC2)cc1 (single isomer, unassigned) [1202 E2] too.
Data returned: > 8.30

Data request: Proceed to CCC(CC(=O)O)c1ccc(N(CC(C)C)C2CCCCC2)c(Nc2ccc(Cl)c(OCC3CC3)c2)c1 (single isomer, unassigned) [Example 652]
Data returned: > 7.30

Data request: What do you get for CCOc1ccc(CC(=O)Nc2cc(C(COC)CC(=O)O)cc(F)c2N(CC(C)C)C2CCCCC2)cc1 (single isomer, unassigned) [Example 1173] ?
Data returned: > 7.30

Data request: Let us now turn to COCC(CC(=O)OC)c1ccc(N(CC(C)C)C2CCC(OC)CC2)c(NC(=O)Nc2ccc(Cl)cc2F)c1 (racemic) [Example 1148]
Data returned: < 7.30

Data request: What do you get for CCOc1cc(Nc2cc(C(CC)CC(=O)O)ccc2N(CC(C)C)C2CCCCC2)ccc1Cl (single isomer, unassigned) [Example 646] ?
Data returned: > 8.30

Data request: Next entry: CCOc1ccc(Nc2cc(C(CC)CC(=O)O)cc(F)c2N(CC(C)C)CC(C)C)cc1 (single isomer, unassigned) [Example 113]
Data returned: > 7.30

Data request: Please do the same for COCC(CC(=O)O)c1cc(F)c(N(CC(C)C)C2CCCCC2)c(NC(=O)Nc2ccc(C)cc2)c1 (single isomer, unassigned) [Example 1161] as well.
Data returned: > 8.30

Data request: One more compound: CCC(CC(=O)O)c1cc(NC(=O)Nc2ccc(C)cc2)c(N(CC(C)C)C2CCCCC2)cc1F (single isomer, unassigned) [Example 1107]
Data returned: > 8.30

Data request: Try this compound too: COCC(CC(=O)O)c1ccc(N(CC(C)C)C2CCC(OC)CC2)c(NC(=O)Nc2ccc(C)cc2)c1 (racemic) [Example 1147]
Data returned: > 7.30

Data request: Try this compound next: CCC(CC(=O)O)c1cc(NC(=O)Nc2cnc(C)nc2)c(N(CC(C)C)C2CCCCC2)cc1F (single isomer, unassigned) [Example 1127]
Data returned: > 8.30
